The reported numbers originate from patent US20230293539A1.

Molecular target: BRD3-BD1 (Homo sapiens)
Construct: BRD3-BD1
Sequence (Q15059 34-140 limits assumed): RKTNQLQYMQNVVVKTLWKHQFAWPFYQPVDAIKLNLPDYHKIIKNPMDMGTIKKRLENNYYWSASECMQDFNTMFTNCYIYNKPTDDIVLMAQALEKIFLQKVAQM
Test: Selectivity panel (Table 3)
observable: IC50

• Cc1c(F)c(N)cc(C(=O)Nc2cc(-n3cc(C(=O)N4CCN(C)CC4)nn3)c(F)cc2N2C[C@@H](C)N(C)[C@@H](C)C2)c1Cl = > 1000 nM

---

Assay: PK profile of HBI-2375 in plasma and brain in C57BL/6J mice
Type: in vivo
Conditions: both sexes, mouse; C57BL/6J mice, single PO 40 mg/kg, plasma, mean
observable: MRT last (h)

- Cc1c(F)c(N)cc(C(=O)Nc2cc(-n3cc(C(=O)N4CCN(C)CC4)nn3)c(F)cc2N2C[C@@H](C)N(C)[C@@H](C)C2)c1Cl [HYBI-084]: 5.26

---

Molecular target: HDAC1 (Homo sapiens, UniProt Q13547)
Sequence (Q13547 whole entry, species assumed): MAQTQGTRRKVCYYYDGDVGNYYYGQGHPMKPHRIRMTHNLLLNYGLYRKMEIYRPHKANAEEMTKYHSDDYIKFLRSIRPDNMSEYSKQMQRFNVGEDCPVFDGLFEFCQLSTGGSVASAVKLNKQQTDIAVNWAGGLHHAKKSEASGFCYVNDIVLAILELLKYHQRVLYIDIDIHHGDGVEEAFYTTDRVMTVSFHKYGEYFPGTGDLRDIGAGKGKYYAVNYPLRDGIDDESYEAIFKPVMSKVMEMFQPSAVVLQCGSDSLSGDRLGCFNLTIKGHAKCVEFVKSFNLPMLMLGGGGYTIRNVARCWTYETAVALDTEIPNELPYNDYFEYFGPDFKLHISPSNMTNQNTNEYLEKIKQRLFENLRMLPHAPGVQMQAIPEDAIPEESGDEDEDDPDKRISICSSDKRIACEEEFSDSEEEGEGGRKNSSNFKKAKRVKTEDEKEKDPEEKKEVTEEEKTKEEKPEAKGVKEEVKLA
pIC50: −log10 of the molar value.
observable: pIC50

- Cc1c(F)c(N)cc(C(=O)Nc2cc(-n3cc(C(=O)N4CCN(C)CC4)nn3)c(F)cc2N2C[C@@H](C)N(C)[C@@H](C)C2)c1Cl [HYBI-084]: < 6.00

---

Experiment: PK profile of HBI-2375 in plasma and brain in C57BL/6J mice
Format: in vivo
Details: both sexes, mouse; C57BL/6J mice, single PO 80 mg/kg, brain, mean
observable: MRT last (h)

- Cc1c(F)c(N)cc(C(=O)Nc2cc(-n3cc(C(=O)N4CCN(C)CC4)nn3)c(F)cc2N2C[C@@H](C)N(C)[C@@H](C)C2)c1Cl: 8.21

---

Assay: Compound formulation stability assay
Assay type: physicochemical
Settings: 10 mg/mL in 10% DMSO/10% solutol HS 15/80% water, 2-8° C., Day 1
observable: Formulation Appearance (Day 1)

• CCN(CC)C(=O)c1cn(-c2cc(NC(=O)c3cc(N)c(F)c(C)c3Cl)c(N3C[C@@H](C)N(C)[C@@H](C)C3)cc2F)nn1 [HYBI-082] = clear
• Cc1c(F)c(N)cc(C(=O)Nc2cc(-n3cc(C(=O)N4CCN(C)CC4)nn3)c(F)cc2N2C[C@@H](C)N(C)[C@@H](C)C2)c1Cl [HYBI-084] = clear solution
• C[C@@H]1CN(c2ncc(-c3cc(Nc4ncnc(Cl)c4N)c(N4CCN(C)[C@@H](C)C4)cc3F)cn2)C[C@H](C)O1 [DDO-2213_023] = clear solution
• C[C@H]1CN(c2cc(F)c(-c3cnc(N4CCOCC4)nc3)cc2Nc2ncnc(Cl)c2N)CCN1C [DDO-2213_020] = clear solution

---

Assay: PK profile of HBI-2375 in plasma and brain in C57BL/6J mice
Assay type: in vivo
Settings: female, C57BL/6J, mouse, plasma, po, 80 mg/kg, C57BL/6J mice, single PO 80 mg/kg
observable: AUC(0-t) (ng·h/mL)

• Cc1c(F)c(N)cc(C(=O)Nc2cc(-n3cc(C(=O)N4CCN(C)CC4)nn3)c(F)cc2N2C[C@@H](C)N(C)[C@@H](C)C2)c1Cl = 15800

---

Assay: PK profile of HBI-2375 in plasma and brain in C57BL/6J mice
Format: in vivo
Conditions: both sexes, C57BL/6J, mouse, brain, oral, 80 mg/kg, mice, single dosing 80 mg/kg; read-out: AUC exposure in brain as % of that in plasma
observable: Kp

• Cc1c(F)c(N)cc(C(=O)Nc2cc(-n3cc(C(=O)N4CCN(C)CC4)nn3)c(F)cc2N2C[C@@H](C)N(C)[C@@H](C)C2)c1Cl = 0.361 to 0.388

---

Experiment: PK profile of HBI-2375 in plasma, brain and CSF in SD rats
Type: in vivo
Conditions: male, Sprague-Dawley, rat, CSF/plasma, po, 40 mg/kg, SD rats, 40 mg/kg PO, CSF/plasma, male; read-out: AUClast Ratio Tissue/Plasma
observable: Kp

• Cc1c(F)c(N)cc(C(=O)Nc2cc(-n3cc(C(=O)N4CCN(C)CC4)nn3)c(F)cc2N2C[C@@H](C)N(C)[C@@H](C)C2)c1Cl = 0.011

---

Target: BRDT-BD1 (Homo sapiens, UniProt Q58F21)
Construct: BRDT-BD1
Assay: Selectivity panel (Table 3)
pIC50: −log10 of the molar value.
observable: pIC50

- Cc1c(F)c(N)cc(C(=O)Nc2cc(-n3cc(C(=O)N4CCN(C)CC4)nn3)c(F)cc2N2C[C@@H](C)N(C)[C@@H](C)C2)c1Cl [HYBI-084]: < 6.00

---

Catalogue of half-life at 1 μM values
Experiment: Liver S9 stability assay
Type: in vitro ADME, dog
Settings: Dog liver S9
observable: half-life at 1 μM

• CCN(CC)C(=O)c1cn(-c2cc(NC(=O)c3cc(N)c(F)c(C)c3Cl)c(N3C[C@@H](C)N(C)[C@@H](C)C3)cc2F)nn1 = > 2.42 h
• C[C@H]1CN(c2cc(F)c(-c3cnc(N4CCOCC4)nc3)cc2Nc2ncnc(Cl)c2N)CCN1C = > 2.42 h
• Cc1c(F)c(N)cc(C(=O)Nc2cc(-n3cc(C(=O)N4CCN(C)CC4)nn3)c(F)cc2N2C[C@@H](C)N(C)[C@@H](C)C2)c1Cl = > 2.42 h
• C[C@@H]1CN(c2ncc(-c3cc(Nc4ncnc(Cl)c4N)c(N4CCN(C)[C@@H](C)C4)cc3F)cn2)C[C@H](C)O1 = > 2.42 h

---

Assay: Dog PK (oral)
Format: in vivo, Beagle dogs
Conditions: Beagle, 4.5 mg/kg, 4.5 mpk, plasma
observable: Cmax (nM)

* C[C@@H]1CN(c2ncc(-c3cc(Nc4ncnc(Cl)c4N)c(N4CCN(C)[C@@H](C)C4)cc3F)cn2)C[C@H](C)O1 | 445
* Cc1c(F)c(N)cc(C(=O)Nc2cc(-n3cc(C(=O)N4CCN(C)CC4)nn3)c(F)cc2N2C[C@@H](C)N(C)[C@@H](C)C2)c1Cl | 47.6

---

Experiment: Liver S9 stability assay
Type: in vitro ADME, mouse
Conditions: Mouse liver S9
observable: half-life at 1 μM

- CCN(CC)C(=O)c1cn(-c2cc(NC(=O)c3cc(N)c(F)c(C)c3Cl)c(N3C[C@@H](C)N(C)[C@@H](C)C3)cc2F)nn1: > 2.42 h
- Cc1c(F)c(N)cc(C(=O)Nc2cc(-n3cc(C(=O)N4CCN(C)CC4)nn3)c(F)cc2N2C[C@@H](C)N(C)[C@@H](C)C2)c1Cl: > 2.42 h
- C[C@@H]1CN(c2ncc(-c3cc(Nc4ncnc(Cl)c4N)c(N4CCN(C)[C@@H](C)C4)cc3F)cn2)C[C@H](C)O1: 2.1 h
- C[C@H]1CN(c2cc(F)c(-c3cnc(N4CCOCC4)nc3)cc2Nc2ncnc(Cl)c2N)CCN1C: > 2.42 h

---

Assay: PK profile of HBI-2375 in plasma and brain in C57BL/6J mice
Format: in vivo
Conditions: female, C57BL/6J, mouse, brain, po, 40 mg/kg, mice, single PO 40 mg/kg, female; read-out: AUClast Ratio Brain/Plasma
observable: Kp

* Cc1c(F)c(N)cc(C(=O)Nc2cc(-n3cc(C(=O)N4CCN(C)CC4)nn3)c(F)cc2N2C[C@@H](C)N(C)[C@@H](C)C2)c1Cl [HYBI-084] | 0.332

---

Molecular target: TEAD3 (Homo sapiens)
Sequence (Q99594 whole entry, species assumed): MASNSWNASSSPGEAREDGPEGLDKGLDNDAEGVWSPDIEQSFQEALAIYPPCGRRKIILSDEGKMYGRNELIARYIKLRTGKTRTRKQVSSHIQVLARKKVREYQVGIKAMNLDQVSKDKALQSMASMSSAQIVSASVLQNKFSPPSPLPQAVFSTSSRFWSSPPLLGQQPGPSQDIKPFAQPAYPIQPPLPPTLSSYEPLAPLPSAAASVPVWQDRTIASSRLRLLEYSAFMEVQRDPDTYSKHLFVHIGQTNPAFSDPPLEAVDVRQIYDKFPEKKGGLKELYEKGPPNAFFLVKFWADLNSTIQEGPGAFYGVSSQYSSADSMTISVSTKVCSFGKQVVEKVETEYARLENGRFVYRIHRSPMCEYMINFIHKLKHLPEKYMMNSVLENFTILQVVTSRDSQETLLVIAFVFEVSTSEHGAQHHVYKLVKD
Assay: Selectivity panel (Table 3)
Assay type: binding
observable: IC50

• Cc1c(F)c(N)cc(C(=O)Nc2cc(-n3cc(C(=O)N4CCN(C)CC4)nn3)c(F)cc2N2C[C@@H](C)N(C)[C@@H](C)C2)c1Cl = > 1000 nM

---

Test: in vitro
Conditions: dog, plasma
observable: fraction unbound

* Cc1c(F)c(N)cc(C(=O)Nc2cc(-n3cc(C(=O)N4CCN(C)CC4)nn3)c(F)cc2N2C[C@@H](C)N(C)[C@@H](C)C2)c1Cl | < 0.24

---

Assay: PK profile of HBI-2375 in plasma and brain in C57BL/6J mice
Type: in vivo
Settings: both sexes, C57BL/6J, mouse, plasma, po, 80 mg/kg, C57BL/6J mice, single PO 80 mg/kg, mean
observable: AUC(0-t) (ng·h/mL)

• Cc1c(F)c(N)cc(C(=O)Nc2cc(-n3cc(C(=O)N4CCN(C)CC4)nn3)c(F)cc2N2C[C@@H](C)N(C)[C@@H](C)C2)c1Cl [HYBI-084] = 15600

---

Target: hERG (Homo sapiens, UniProt Q12809)
Sequence (Q12809 whole entry): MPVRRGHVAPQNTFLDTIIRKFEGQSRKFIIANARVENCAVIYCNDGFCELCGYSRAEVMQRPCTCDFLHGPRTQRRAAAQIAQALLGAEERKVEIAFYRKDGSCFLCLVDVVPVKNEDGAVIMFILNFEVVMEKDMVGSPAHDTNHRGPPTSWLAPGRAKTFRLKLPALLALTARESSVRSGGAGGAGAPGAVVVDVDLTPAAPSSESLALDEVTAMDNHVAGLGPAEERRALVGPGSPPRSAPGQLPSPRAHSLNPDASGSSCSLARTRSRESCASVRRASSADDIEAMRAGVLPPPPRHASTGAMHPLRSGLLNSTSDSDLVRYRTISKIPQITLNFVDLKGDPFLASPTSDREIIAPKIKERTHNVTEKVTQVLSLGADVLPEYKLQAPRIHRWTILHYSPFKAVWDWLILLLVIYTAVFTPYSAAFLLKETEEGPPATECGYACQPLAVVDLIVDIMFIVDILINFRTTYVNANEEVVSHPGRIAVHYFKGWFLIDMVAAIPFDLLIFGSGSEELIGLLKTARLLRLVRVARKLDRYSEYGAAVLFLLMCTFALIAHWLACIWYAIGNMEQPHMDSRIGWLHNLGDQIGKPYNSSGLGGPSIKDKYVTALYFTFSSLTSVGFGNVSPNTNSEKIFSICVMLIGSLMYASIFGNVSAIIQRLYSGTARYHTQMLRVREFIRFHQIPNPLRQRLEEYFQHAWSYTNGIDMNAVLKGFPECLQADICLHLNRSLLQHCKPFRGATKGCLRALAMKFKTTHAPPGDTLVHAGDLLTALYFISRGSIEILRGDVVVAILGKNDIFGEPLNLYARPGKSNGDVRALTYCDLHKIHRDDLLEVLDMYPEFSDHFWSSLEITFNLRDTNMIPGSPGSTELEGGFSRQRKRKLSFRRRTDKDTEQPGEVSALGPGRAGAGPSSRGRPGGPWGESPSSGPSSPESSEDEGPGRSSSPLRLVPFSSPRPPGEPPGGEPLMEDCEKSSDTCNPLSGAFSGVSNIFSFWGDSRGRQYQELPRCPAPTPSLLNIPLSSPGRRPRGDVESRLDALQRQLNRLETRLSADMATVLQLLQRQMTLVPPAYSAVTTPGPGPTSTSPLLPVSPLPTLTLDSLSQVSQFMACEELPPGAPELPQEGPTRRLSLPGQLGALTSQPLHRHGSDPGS
Experiment: hERG IC50
pIC50: −log10 of the molar value.
observable: pIC50

- Cc1c(F)c(N)cc(C(=O)Nc2cc(-n3cc(C(=O)N4CCN(C)CC4)nn3)c(F)cc2N2C[C@@H](C)N(C)[C@@H](C)C2)c1Cl: 4.65

---

Target: KRAS G12D (Homo sapiens, UniProt P01116, G12D)
Sequence (P01116 1-188 isoform P01116-2 G12D): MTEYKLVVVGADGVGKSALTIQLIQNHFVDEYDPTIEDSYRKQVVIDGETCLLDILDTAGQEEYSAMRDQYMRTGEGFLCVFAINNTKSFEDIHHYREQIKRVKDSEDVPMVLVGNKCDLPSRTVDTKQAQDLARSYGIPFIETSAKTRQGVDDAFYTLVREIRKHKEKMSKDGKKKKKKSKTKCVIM
Experiment: Selectivity panel (Table 3)
observable: IC50

- Cc1c(F)c(N)cc(C(=O)Nc2cc(-n3cc(C(=O)N4CCN(C)CC4)nn3)c(F)cc2N2C[C@@H](C)N(C)[C@@H](C)C2)c1Cl: > 1000 nM
